Tested on: zebrafish embryos
condition description: zebrafish embryos 72 hpf, 1.5 mg/mL
experimental readout: MAR (malformation rate) (% ^b)
Supply the numeric figure in % ^b, leaving out any unit text.

Cc1ccc2[nH]c3ccccc3c(=NC(=S)NNC(=O)c3ccncc3)c2c1 | 80
COC1=CC2C(=Nc3nnc(-c4ccncc4)s3)c3ccccc3NC2C=C1 (stereo not drawn) | 95

The measured MAR (malformation rate) associated with CC1=CC2C(=Nc3nnc(-c4ccc([N+](=O)[O-])cc4)s3)c3ccccc3NC2C=C1 (stereo not drawn) reads 10

Lookup result for COc1ccc(-c2nnc(N=C3c4ccccc4NC4C=CC(C)=CC34)s2)cc1 (stereo not drawn) ; measured MAR (malformation rate): 80

---

Test system: hepatocellular carcinoma bel-7404 (BEL-7404)
assay remarks: MTT antiproliferative assay, BEL-7404
Type: cell-based, human
condition description: Homo sapiens, read-out: Effect against cell viability (IC50), BEL-7404
experimental readout: IC50

COc1ccc(-c2nnc(N=C3c4ccccc4NC4C=CC(C)=CC34)s2)cc1 (centres unmarked) [6h] | 20.2 µM
CC1=CC2C(=Nc3nnc(-c4ccncc4)s3)c3ccccc3NC2C=C1 (centres unmarked) [6f] | 40.3 µM

The compound identified as COc1ccc(-c2n[nH]c(=S)n2-c2c3ccccc3nc3ccc(OC)cc23)cc1 [5c] registered its IC50 at 28.7 µM

Note to self: IC50 recorded for COC1=CC2C(=Nc3nnc(-c4ccc([N+](=O)[O-])cc4)s3)c3ccccc3NC2C=C1 (centres unmarked) [6d] was > 100 µM

Per the record, Cc1ccc2nc3ccccc3c(-n3c(-c4ccccc4)n[nH]c3=S)c2c1 [5g] has IC50 of 20.5 µM

IC50 recorded for this compound, COC1=CC2C(=Nc3nnc(-c4ccc(Cl)cc4)s3)c3ccccc3NC2C=C1 (centres unmarked) [6e] , is 21.3 µM

For reference, reported IC50 for Cc1ccc2nc3ccccc3c(-n3c(-c4ccc([N+](=O)[O-])cc4)n[nH]c3=S)c2c1 [5i] stands at 31.7 µM

Note to self: IC50 recorded for CC1=CC2C(=Nc3nnc(-c4ccccc4)s3)c3ccccc3NC2C=C1 (centres unmarked) [6g] was 31.2 µM

response.value for COC1=CC2C(=Nc3nnc(-c4ccncc4)s3)c3ccccc3NC2C=C1 (centres unmarked) [6a] (field: IC50) = 19.2 µM

Entry COc1ccc2nc3ccccc3c(-n3c(-c4ccc([N+](=O)[O-])cc4)n[nH]c3=S)c2c1 [5d] — recorded IC50 = 25.1 µM

Given item COc1ccc2nc3ccccc3c(-n3c(-c4ccccc4)n[nH]c3=S)c2c1 [5b] , the value recorded as its IC50 is 27.7 µM

---

Tested on: zebrafish embryos
condition description: zebrafish embryos 72 hpf, 2 mg/mL
experimental readout: MAR (malformation rate) (% ^b)
Give just the number in % ^b; leave the unit off.

COc1ccc(-c2nnc(N=C3c4ccccc4NC4C=CC(C)=CC34)s2)cc1 (stereo not drawn) | 65

API: the following record is the query input.
Given item COC1=CC2C(=Nc3nnc(-c4ccncc4)s3)c3ccccc3NC2C=C1 (stereo not drawn) , the value recorded as its MAR (malformation rate) is 90

---

Quick reference for MAR (malformation rate) among some compounds
Test system: zebrafish embryos
condition description: zebrafish embryos 72 hpf, 1 mg/mL
Marks after values point to notes of the source that are not given here.

COC1=CC2C(=Nc3nnc(-c4ccc(Cl)cc4)s3)c3ccccc3NC2C=C1 (stereo not drawn) | 10% ^c
CC1=CC2C(=Nc3nnc(-c4ccc([N+](=O)[O-])cc4)s3)c3ccccc3NC2C=C1 (stereo not drawn) | 0%

Please find the next compound below.
Sample Cc1ccc2[nH]c3ccccc3c(=NC(=S)NNC(=O)c3ccncc3)c2c1 , system: zebrafish embryos. Its MAR (malformation rate) is 60% ^b
